Where do these numbers come from? They come from ChEMBL document CHEMBL4814080.

Test system: Panel NCI-60 (60 carcinoma cell lines)
Test details: Cytotoxicity against human Panel NCI-60 (60 carcinoma cell lines) assessed as cell growth at 10 uM after 48 hrs by sulforhodamine B assay relative to control
Assay type: functional
Protocol conditions: read-out: Activity
Threshold 50%. growth at 10 µM below it: Condition met. growth at 10 µM at it or above: Condition not met.

Below are worked cases with known answers.
{"Structure notation": "O=S(=O)(Nc1ccc2c(c1)OC(F)(F)O2)c1ccc(-c2cnc(C3CC3)o2)cc1", "Qualitative label": "Condition met"}
{"Structure notation": "O=S(=O)(Nc1ccc(C(F)(F)F)cc1)c1ccc(-c2cnc(C3CC3)o2)cc1", "Qualitative label": "Condition not met"}
{"Structure notation": "Cc1ccc(NS(=O)(=O)c2ccc(-c3cnc(C4CC4)o3)cc2)cc1", "Qualitative label": "Condition met"}
{"Structure notation": "O=S(=O)(Nc1ccc(OC(F)F)cc1)c1ccc(-c2cnc(C3CC3)o2)cc1", "Qualitative label": "Condition not met"}
{"Structure notation": "O=S(=O)(Nc1ccc(Cl)c(Cl)c1)c1ccc(-c2cnc(C3CC3)o2)cc1", "Qualitative label": "Condition met"}
{"Structure notation": "CN(c1ccc(Cl)cc1)S(=O)(=O)c1ccc(-c2cnc(C3CC3)o2)cc1", "Qualitative label": "Condition met"}
{"Structure notation": "O=S(=O)(Nc1ccc(F)cc1F)c1ccc(-c2cnc(C3CC3)o2)cc1", "Qualitative label": "Condition met"}
{"Structure notation": "Cc1cc(F)cc(NS(=O)(=O)c2ccc(-c3cnc(C4CC4)o3)cc2)c1", "Qualitative label": "Condition met"}

Query block: growth at 10 µM strictly < 50% for this molecule? O=S(=O)(Nc1ccc(Cl)cc1Cl)c1ccc(-c2cnc(C3CC3)o2)cc1
Result block: Condition met

Query block: Check if growth at 10 µM falls below 50% for O=S(=O)(Nc1ccccc1Cl)c1ccc(-c2cnc(C3CC3)o2)cc1 .
Result block: Condition met

Query block: Input N#Cc1ccc(NS(=O)(=O)c2ccc(-c3cnc(C4CC4)o3)cc2)cc1 ; condition: growth at 10 µM strictly below 50%. Does it hold?
Result block: Condition not met

Query block: I'd appreciate it if you could check whether O=S(=O)(Nc1ccc(C(F)(F)F)c(Cl)c1)c1ccc(-c2cnc(C3CC3)o2)cc1 has growth at 10 µM smaller than 50%.
Result block: Condition not met

Query block: Item COc1ccc(NS(=O)(=O)c2ccc(-c3cnc(C4CC4)o3)cc2)cc1Cl : growth at 10 µM beneath 50%, strictly?
Result block: Condition met

Query block: A record lists O=S(=O)(Nc1ccc(Cl)c(F)c1)c1ccc(-c2cnc(C3CC3)o2)cc1 . Is its growth at 10 µM below 50%?
Result block: Condition met
